Biological target: Factor X (FX), P00742
Sequence (P00742 whole entry, looked up): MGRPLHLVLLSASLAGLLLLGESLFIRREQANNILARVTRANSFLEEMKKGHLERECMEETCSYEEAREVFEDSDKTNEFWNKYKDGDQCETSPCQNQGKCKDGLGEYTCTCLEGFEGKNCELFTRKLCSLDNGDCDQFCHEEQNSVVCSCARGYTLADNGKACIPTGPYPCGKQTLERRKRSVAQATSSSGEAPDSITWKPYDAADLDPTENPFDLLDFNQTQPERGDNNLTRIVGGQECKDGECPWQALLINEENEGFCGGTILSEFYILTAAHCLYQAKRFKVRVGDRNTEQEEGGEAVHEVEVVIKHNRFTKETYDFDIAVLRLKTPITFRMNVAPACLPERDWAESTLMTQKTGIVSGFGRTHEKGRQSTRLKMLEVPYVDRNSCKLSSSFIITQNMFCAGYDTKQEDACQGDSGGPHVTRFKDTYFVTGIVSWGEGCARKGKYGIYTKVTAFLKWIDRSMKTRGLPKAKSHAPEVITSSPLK
ASSAY_READOUT: KM (µM)
// note: answer is a bare numeric in µM

Task: Consider the protein FIXa-R318Y/R338E/T343R/R403E/E410N (protein) chain 1: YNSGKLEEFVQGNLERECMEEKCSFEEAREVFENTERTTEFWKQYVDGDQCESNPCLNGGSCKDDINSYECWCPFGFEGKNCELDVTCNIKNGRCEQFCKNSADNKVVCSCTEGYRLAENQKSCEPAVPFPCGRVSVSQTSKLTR chain 2: VVGGEDAKPGQFPWQVVLNGKVDAFCGGSIVNEKWIVTAAHCVETGVKITVVAGEHNIEETEHTEQKRNVIRIIPHHNYNAAINKYNHDIALLELDEPLVLNSYVTPICIADKEYTNIFLKFGSGYVSGWGRVFHKGYSALVLQYLRVPLVDRATCLESTKFRIYNNMFCAGFHEGGRDSCQGDSGGPHVTEVEGTSFLTGIISWGEECAMKGKYGIYTKVSEYVNWIKNKTKLT and give its recorded KM.
Output: 0.0247

Origin of the recorded values: patent US20210230570
